System: Staphylococcus sp.
Test: in vitro antibacterial evaluation, MIC by broth dilution
Format: cell-based
Conditions: strain ATCC 29213; broth dilution, 18 hours at 35° C.
Numbered stars: 1 amine (or outer) side, 2 acyl side, 3 side chain; on linkers, the order of the positions; unused ones are H or OH. Square brackets hold non-standard residues; d marks the D form. Peptide text beside a SMILES is read from it. ξ: configuration not given here. X1 = N=C1NCC(C(O)C(N[*:1])C(=O)[*:2])N1C1OC(CO)C(O)C(O)C1O; ξEnduracididine(βξ-OH,4'ξ) = N=C1NCC(C(O)C(N)C(=O)O)N1; Cha = N[CH](CC1CCCCC1)C(=O)O

# compound, u, valueOperator, MIC Staphylococcus aureus (ATCC 29213)
measured = [
    ("CC(C)=CCCC(C)=CCCC(C)=CCOc1cccc(C2OCC3OC(OC4C(CO)OC(Oc5ccc(CC6NC(=O)C(C(C)c7ccccc7)NC(=O)CNC(=O)C(CO)NC(=O)C(C(O)C7CNC(=N)N7C7OC(CO)C(O)C(O)C7O)NC(=O)C(C(O)C7CNC(=N)N7)NC6=O)cc5)C(O)C4O)C(O)C(O)C3O2)c1 (centres unmarked) [Example 185]", "µg/mL", ">", 64),
    ("CC(c1ccccc1)C1NC(=O)CNC(=O)C(CO)NC(=O)C(C(O)C2CNC(=N)N2C2OC(CO)C(O)C(O)C2O)NC(=O)C(C(O)C2CNC(=N)N2)NC(=O)C(Cc2ccc3oc(C=C(c4ccccc4)c4ccccc4)nc3c2)NC1=O (centres unmarked) [Example 39]", "µg/mL", "=", 16),
    ("CC(c1ccccc1)C1NC(=O)CNC(=O)C(CO)NC(=O)C(C(O)C2CNC(=N)N2C2OC(CO)C(O)C(O)C2O)NC(=O)C(C(O)C2CNC(=N)N2)NC(=O)C(Cc2ccc(OC3OC(CO)C(OC4OC5COC(c6ccccc6)OC5C(O)C4O)C(O)C3O)c(I)c2)NC1=O (centres unmarked) [Example 196]", "µg/mL", ">", 64),
    ("CC(c1ccccc1)C1NC(=O)CNC(=O)C(CO)NC(=O)C(CC2CNC(=N)N2C2OC(CO)C(O)C(O)C2O)NC(=O)C(CC2CNC(=N)N2)NC(=O)C(Cc2ccc(OC3OC(CO)C(OC4OC5COC(c6ccc(OCc7ccccc7)cc6)OC5C(O)C4O)C(O)C3O)cc2)NC1=O (centres unmarked) [Example 191]", "µg/mL", "=", 4),
    ("N=C1NCC(C(O)C2NC(=O)C(CC3CCCCC3)NC(=O)C(CC3CCCCC3)NC(=O)CNC(=O)C(CO)NC(=O)C(C(O)C3CNC(=N)N3C3OC(CO)C(O)C(O)C3O)NC2=O)N1 (stereo not drawn) [Example 52] (cyclo(G[Cha][Cha][ξEnduracididine(βξ-OH,4'ξ)][X1]S); configuration not given here)", "µg/mL", "=", 16),
    ("CC(c1ccccc1)C1NC(=O)CNC(=O)C(CO)NC(=O)C(C(O)C2CN(CCCCCCCCCCC(=O)O)C(=N)N2C2OC(CO)C(O)C(O)C2O)NC(=O)C(C(O)C2CNC(=N)N2)NC(=O)C(Cc2ccc(OC3OC(CO)C(OC4OC(CO)C(O)C(O)C4O)C(O)C3O)cc2)NC1=O (centres unmarked) [Example 72]", "µg/mL", ">", 128),
    ("CC(c1ccccc1)C1NC(=O)CNC(=O)C(CO)NC(=O)C(C(O)C2CNC(=N)N2C2OC(CO)C(O)C(O)C2O)NC(=O)C(C(O)C2CNC(=N)N2)NC(=O)C(Cc2ccc(OC3OC(CO)C(OC4OC5COC6(CC7CCC6(C)C7(C)C)OC5C(O)C4O)C(O)C3O)cc2)NC1=O (centres unmarked) [Example 214]", "µg/mL", "=", 2),
    ("CCCC(CCC)C(=O)OCC1OC(Oc2ccc(CC3NC(=O)C(C(C)c4ccccc4)NC(=O)CNC(=O)C(CO)NC(=O)C(C(O)C4CNC(=N)N4C4OC(CO)C(O)C(O)C4O)NC(=O)C(C(O)C4CNC(=N)N4)NC3=O)cc2)C(O)C(O)C1OC1OC(CO)C(O)C(O)C1O (centres unmarked) [Example 99b]", "µg/mL", "=", 4),
]

----------
Test system: Enterococcus sp.
Experiment: in vitro antibacterial evaluation, MIC by broth dilution
Format: cell-based
Settings: broth dilution, 18 hours at 35° C.
quantity: MIC Enterococcus faecalis (GC 4553) (µg/mL)

# compound, quantity, u, quantitativeReadout
measured = [
    ("CC(c1ccccc1)C1NC(=O)CNC(=O)C(CO)NC(=O)C(C(O)C2CNC(=N)N2C2OC(CO)C(O)C(O)C2O)NC(=O)C(C(O)C2CNC(=N)N2)NC(=O)C(Cc2ccc(OC3OC(CO)C(OC4OC5COC(c6ccc(C(=O)c7ccc(I)cc7)cc6)OC5C(O)C4O)C(O)C3O)cc2)NC1=O (stereo not shown) [Example 186]", "MIC Enterococcus faecalis (GC 4553)", "µg/mL", 2),
    ("CC(C1CCCCC1)C1NC(=O)CNC(=O)C(CO)NC(=O)C(C(O)C2CNC(=N)N2C2OC(CO)C(O)C(O)C2O)NC(=O)C(C(O)C2CNC(=N)N2)NC(=O)C(Cc2ccc(OC3OC(CO)C(OC4OC5COC(c6ccccc6)OC5C(O)C4O)C(O)C3O)cc2)NC1=O (stereo not shown) [Example 201]", "MIC Enterococcus faecalis (GC 4553)", "µg/mL", 1),
    ("COc1ccc(COCC2OC(OC3C(CO)OC(Oc4ccc(CC5NC(=O)C(C(C)c6ccccc6)NC(=O)CNC(=O)C(CO)NC(=O)C(C(O)C6CNC(=N)N6C6OC(CO)C(O)C(O)C6O)NC(=O)C(C(O)C6CNC(=N)N6)NC5=O)cc4)C(O)C3O)C(O)C(O)C2O)cc1OCc1ccccc1 (stereo not shown) [Example 239]", "MIC Enterococcus faecalis (GC 4553)", "µg/mL", 4),
    ("CC(C1CCCCC1)C1NC(=O)CNC(=O)C(CO)NC(=O)C(C(O)C2CNC(=N)N2C2OC(CO)C(O)C(O)C2O)NC(=O)C(C(O)C2CNC(=N)N2)NC(=O)C(Cc2ccc(OC3OC(CO)C(OC4OC5COC6(OC5C(O)C4O)C4CC5CC(C4)CC6C5)C(O)C3O)cc2)NC1=O (stereo not shown) [Example 221]", "MIC Enterococcus faecalis (GC 4553)", "µg/mL", 2),
]

----------
System: Enterococcus sp.
Experiment: in vitro antibacterial evaluation, MIC by broth dilution
Type: cell-based
Details: Enterococcus faecalis (GC 2242); broth dilution, 18 hours at 35° C.

# compound, MIC Enterococcus faecalis (GC 2242), µg/mL
data = [
    ("CC(C)=CCCC(C)C1OCC2OC(OC3C(CO)OC(Oc4ccc(CC5NC(=O)C(C(C)c6ccccc6)NC(=O)CNC(=O)C(CO)NC(=O)C(C(O)C6CNC(=N)N6C6OC(CO)C(O)C(O)C6O)NC(=O)C(C(O)C6CNC(=N)N6)NC5=O)cc4)C(O)C3O)C(O)C(O)C2O1 (stereo not shown) [Example 125]", 32),
    ("CC(=O)n1cc(C2OCC3OC(OC4C(CO)OC(Oc5ccc(CC6NC(=O)C(C(C)c7ccccc7)NC(=O)CNC(=O)C(CO)NC(=O)C(C(O)C7CNC(=N)N7C7OC(CO)C(O)C(O)C7O)NC(=O)C(C(O)C7CNC(=N)N7)NC6=O)cc5)C(O)C4O)C(O)C(O)C3O2)c2ccccc21 (stereo not shown) [Example 161]", 16),
    ("COc1cc(OC)cc(C2OCC3OC(OC4C(CO)OC(Oc5ccc(CC6NC(=O)C(C(C)c7ccccc7)NC(=O)CNC(=O)C(CO)NC(=O)C(C(O)C7CNC(=N)N7C7OC(CO)C(O)C(O)C7O)NC(=O)C(C(O)C7CNC(=N)N7)NC6=O)cc5)C(O)C4O)C(O)C(O)C3O2)c1 (stereo not shown) [Example 150]", 4),
    ("CC(c1ccccc1)C1NC(=O)CNC(=O)C(CO)NC(=O)C(C(O)C2CNC(=N)N2C2OC(CO)C(O)C(O)C2O)NC(=O)C(C(O)C2CNC(=N)N2)NC(=O)C(Cc2ccc(OC3OC(CO)C(OC4OC5COC(Cc6ccc(Cl)cc6)OC5C(O)C4O)C(O)C3O)cc2)NC1=O (stereo not shown) [Example 120]", 1),
]

----------
System: Staphylococcus sp.
Assay: in vitro antibacterial evaluation, MIC by broth dilution
Type: cell-based
Settings: strain GC 1131; broth dilution, 18 hours at 35° C.
quantity: MIC Staphylococcus aureus (GC 1131) (mg/L)

# compound, tgt, quantity, valueOperator, quantitativeReadout
rows = [
    ("CC(C1CCCCC1)C1NC(=O)CNC(=O)C(CO)NC(=O)C(C(O)C2CNC(=N)N2C2OC(CO)C(O)C(O)C2O)NC(=O)C(C(O)C2CNC(=N)N2)NC(=O)C(C[C@H]2CC[C@H](O)CC2)NC1=O (stereo partly drawn) [Example 54a]", "Staphylococcus sp.", "MIC Staphylococcus aureus (GC 1131)", ">", 128),
    ("COc1ccc(CC2OCC3OC(OC4C(CO)OC(Oc5ccc(CC6NC(=O)C(C(C)c7ccccc7)NC(=O)CNC(=O)C(CO)NC(=O)C(C(O)C7CNC(=N)N7C7OC(CO)C(O)C(O)C7O)NC(=O)C(C(O)C7CNC(=N)N7)NC6=O)cc5)C(O)C4O)C(O)C(O)C3O2)cc1 (stereo not drawn)", "Staphylococcus sp.", "MIC Staphylococcus aureus (GC 1131)", "=", 2),
    ("CC(c1ccccc1)C1NC(=O)CNC(=O)C(CO)NC(=O)C(C(O)C2CNC(=N)N2C2OC(CO)C(O)C(O)C2O)NC(=O)C(C(O)C2CNC(=N)N2)NC(=O)C(Cc2ccc(OC3OC(CO)C(OC4OC5COC(c6cccc(Oc7cccc(C(F)(F)F)c7)c6)OC5C(O)C4O)C(O)C3O)cc2)NC1=O (stereo not drawn)", "Staphylococcus sp.", "MIC Staphylococcus aureus (GC 1131)", "=", 32),
    ("CC(c1ccccc1)C1NC(=O)CNC(=O)C(CO)NC(=O)C(C(O)C2CNC(=N)N2C2OC(CO)C(O)C(O)C2O)NC(=O)C(C(O)C2CNC(=N)N2)NC(=O)C(Cc2ccc(OC3OC(CO)C(OC4OC5COC(c6ccccc6)OC5C(O)C4O)C(O)C3O)c(I)c2)NC1=O (stereo not drawn)", "Staphylococcus sp.", "MIC Staphylococcus aureus (GC 1131)", ">", 64),
    ("N=C1NCC(C(O)C2NC(=O)C(Cc3ccc(OC4OC(CO)C(OC5OC6COC7(OC6C6OC8(OC56)C5CC6CC(C5)CC8C6)C5CC6CC(C5)CC7C6)C(O)C4O)cc3)NC(=O)C(CC3CCCCC3)NC(=O)CNC(=O)C(CO)NC(=O)C(C(O)C3CNC(=N)N3C3OC(CO)C(O)C(O)C3O)NC2=O)N1 (stereo not drawn) [Example 106b]", "Staphylococcus sp.", "MIC Staphylococcus aureus (GC 1131)", "=", 8),
    ("CC(c1ccccc1)C1NC(=O)CNC(=O)C(CO)NC(=O)C(C(O)C2CNC(=N)N2C2OC(CO)C(O)C(O)C2O)NC(=O)C(C(O)C2CNC(=N)N2)NC(=O)C(Cc2ccc(OC3OC(CO)C(OC4OC5COC6(CC(C)(C)CC(C)(C)C6)OC5C(O)C4O)C(O)C3O)cc2)NC1=O (stereo not drawn)", "Staphylococcus sp.", "MIC Staphylococcus aureus (GC 1131)", "=", 2),
    ("CC(c1ccccc1)C1NC(=O)CNC(=O)C(CO)NC(=O)C(C(O)C2CNC(=N)N2C2OC(CO)C(O)C(O)C2O)NC(=O)C(C(O)C2CNC(=N)N2)NC(=O)C(Cc2ccc(OC3OC(CO)C(OC4OC5COC(c6ccc(C(=O)c7cc(I)c(I)c(I)c7)cc6)OC5C(O)C4O)C(O)C3O)cc2)NC1=O (stereo not drawn)", "Staphylococcus sp.", "MIC Staphylococcus aureus (GC 1131)", "=", 64),
    ("CC(c1ccccc1)C1NC(=O)CNC(=O)C(CO)NC(=O)C(C(O)C2CNC(=N)N2C2OC(CO)C(O)C(O)C2O)NC(=O)C(C(O)C2CNC(=N)N2)NC(=O)C(Cc2ccc(O)c(NC(=O)c3ccccc3)c2)NC1=O (stereo not drawn)", "Staphylococcus sp.", "MIC Staphylococcus aureus (GC 1131)", ">", 64),
    ("CN=C1N(C)CC(C(O)C2NC(=O)C(Cc3ccc(OC4OC(CO)C(OC5OC(CO)C(O)C(O)C5O)C(O)C4O)cc3)NC(=O)C(C(C)c3ccccc3)NC(=O)CNC(=O)C(CO)NC(=O)C(C(O)C3CN(C)C(=NC)N3C3OC(CO)C(O)C(O)C3O)NC2=O)N1C (stereo not drawn)", "Staphylococcus sp.", "MIC Staphylococcus aureus (GC 1131)", ">", 128),
]

FYI, the data here is from patent US6914045B2.
